TARGET: hGLP-1R (Homo sapiens, UniProt P43220)
Sequence (P43220 24-463): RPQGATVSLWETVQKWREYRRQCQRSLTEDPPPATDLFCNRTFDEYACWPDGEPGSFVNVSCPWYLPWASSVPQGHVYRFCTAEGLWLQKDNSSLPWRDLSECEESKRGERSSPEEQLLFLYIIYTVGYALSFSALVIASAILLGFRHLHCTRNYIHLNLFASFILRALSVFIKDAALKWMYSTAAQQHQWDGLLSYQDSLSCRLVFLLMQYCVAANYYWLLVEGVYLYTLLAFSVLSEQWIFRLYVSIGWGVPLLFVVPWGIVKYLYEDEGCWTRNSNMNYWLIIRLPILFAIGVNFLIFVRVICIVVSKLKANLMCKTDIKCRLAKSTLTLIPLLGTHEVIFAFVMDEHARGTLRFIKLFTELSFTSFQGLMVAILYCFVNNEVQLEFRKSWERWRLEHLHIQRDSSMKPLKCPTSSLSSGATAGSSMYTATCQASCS
METHOD: Functional cAMP activation in the presence of 0.1% casein (no HSA);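 note: intracellular cAMP rise after 30 min at 37 °C read by HTRF, normalized between buffer only (0%) and maximal control ligand (100%), four-parameter variable-slope fit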
Type: cell-based
CONDITION DETAILS: in the presence of 0.1% casein (no HSA); geometric mean; read-out: Relative cAMP EC50, hGLP-1R
Starred links: 1 amine or outer side, 2 acyl side, 3 side chain; linkers in the order of their positions; H or OH if unused. Non-standard residues stand in square brackets, D forms with d. Groups on a side chain read outwards from the residue. No end group written: not given here. *: point of attachment. C20 diacid = O=C(O)CCCCCCCCCCCCCCCCCCC(=O)*; C18 diacid = O=C(O)CCCCCCCCCCCCCCCCC(=O)*; γGlu = O=C(O)[C@H](CCC(=O)[*:2])N[*:1]; αMeL = CC(C)C[C@](C)(N)C(=O)O; Orn = NCCC[C@H](N)C(=O)O; AEEA = NCCOCCOCC(=O)O; Aib = CC(C)(N)C(=O)O
Field: EC50. Provide a value for each of the substances that follow.
Give bare numbers, in nM.

Can you give me EC50 for all of these, one by one?
1. H-Y[Aib]QGTFTSDYSI[αMeL]LDKQAAK([AEEA-AEEA-γGlu-C20 diacid])QFVEWLIAGGPSSGEPPPAEG-NH2 [Example 332]
2. H-Y[Aib]QGTFTSDFS[Orn][αMeL]LDKK([AEEA-γGlu-C20 diacid])AQ[Aib]AFIEWLLEGGPSSGAPPPEGE-NH2 [Example 101]

a:
1.24
4.3

q: Specify EC50 for Y[Aib]QGTFTSDFS[Orn][αMeL]LDKK([AEEA-γGlu-C18 diacid])AQ[Aib]AFIEWLLEGGHSSGAPPPGGE-NH2 [Example 273] , system hGLP-1R (Homo sapiens, UniProt P43220).
a: 4.02

###

Field: EC50. Provide a value for each of the substances that follow.
TARGET: hGLP-1R (Homo sapiens)
METHOD: Functional cAMP activity in the presence of 1% HSA
Type: cell-based
CONDITION DETAILS: read-out: cAMP Rel EC50, hGLP-1R
Starred links: 1 amine or outer side, 2 acyl side, 3 side chain; linkers in the order of their positions; H or OH if unused. Non-standard residues stand in square brackets, D forms with d. Groups on a side chain read outwards from the residue. *: point of attachment. C18 diacid = O=C(O)CCCCCCCCCCCCCCCCC(=O)*; αMePhe(2-F) = C[C@](N)(Cc1ccccc1F)C(=O)O; γGlu = O=C(O)[C@H](CCC(=O)[*:2])N[*:1]; αMe4Pal = C[C@](N)(Cc1ccncc1)C(=O)O; αMeY = C[C@](N)(Cc1ccc(O)cc1)C(=O)O; 4Pal = N[C@@H](Cc1ccncc1)C(=O)O; αMeL = CC(C)C[C@](C)(N)C(=O)O; αMeS = C[C@](N)(CO)C(=O)O; Orn = NCCC[C@H](N)C(=O)O; AEEA = NCCOCCOCC(=O)O; Aib = CC(C)(N)C(=O)O
Just the number plus its unit, please.

H-Y[Aib]QGT[αMePhe(2-F)]TSD[4Pal][αMeS]I[αMeL]LD[Orn]K([AEEA-γGlu-C18 diacid])AQ[Aib][Orn]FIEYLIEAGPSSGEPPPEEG-NH2 [Example 484]	16 nM

Can you give me EC50 for all of these, one by one?
1. H-Y[Aib]QGTFTSDFS[Orn][αMeL]LDKK([AEEA-γGlu-C18 diacid])AQ[Aib]AFIEWLLEGGPSSGAPPPTGS-NH2 [Example 250]
2. H-Y[Aib]QGT[αMePhe(2-F)]TSD[4Pal]SILLDKK([γGlu-γGlu-C18 diacid])AQ[Aib]AFIE[αMeY]LEEGGPSSGAPPPSGTGE-NH2 [Example 664]
3. H-Y[Aib]QGTFTSD[4Pal]SK[αMeL]LDKK([γGlu-γGlu-C18 diacid])AQ[Aib]AFIEYLIE[Aib]GPSSGAPPPSGSE-NH2 [Example 904]

a:
["194 nM", "27.7 nM", "198 nM"]

q: Give EC50 for the following substance: H-Y[Aib]QGT[αMePhe(2-F)]TSD[4Pal]SI[αMeL]LD[Orn]K([AEEA-γGlu-C18 diacid])AQ[αMe4Pal]EFI[dE][αMeY]LQEGGPSSGAPPPSGS-NH2 [Example 643]
a: 60.1 nM
